Where these numbers come from: patent US20170290821A1

Items are presented alongside their recorded CC50 at 48 h.
# method.summary: Cytotoxicity test (Cell Counting Kit-8), HEK293
# Assay type: cell-based, human
# condition.context: human, HEK293 cells, 293 (HEK293) cells, read-out: CC50 (50% cytotoxicity concentration) (converted)
Entry rule: numbers only, all in µM.

Below: 2 compounds and their reported CC50 at 48 h.
CN1C/C=C/CCOc2cccc(c2)-c2ccnc(n2)Nc2cccc(c2)C1; 52.5
Fc1cc(-c2cccc3ncc(-c4cnn(C5CCNCC5)c4)nc23)cc(F)c1CN1CCOCC1; 20.9

Next compound, please.
Summary for this compound, CC(C)N(CCC(=O)c1ccc2ccccc2c1)Cc1ccccc1 : CC50 at 48 h is 47.9
